# test-system: T1, human LAP-TGFB1 Fc fusion (human)
# T1 construct: also called human LAP-TGFβ1-Fc; human LAP-TGFβ-Fc isoform 1
# T1 sequence (chain, as listed by the source limits assumed): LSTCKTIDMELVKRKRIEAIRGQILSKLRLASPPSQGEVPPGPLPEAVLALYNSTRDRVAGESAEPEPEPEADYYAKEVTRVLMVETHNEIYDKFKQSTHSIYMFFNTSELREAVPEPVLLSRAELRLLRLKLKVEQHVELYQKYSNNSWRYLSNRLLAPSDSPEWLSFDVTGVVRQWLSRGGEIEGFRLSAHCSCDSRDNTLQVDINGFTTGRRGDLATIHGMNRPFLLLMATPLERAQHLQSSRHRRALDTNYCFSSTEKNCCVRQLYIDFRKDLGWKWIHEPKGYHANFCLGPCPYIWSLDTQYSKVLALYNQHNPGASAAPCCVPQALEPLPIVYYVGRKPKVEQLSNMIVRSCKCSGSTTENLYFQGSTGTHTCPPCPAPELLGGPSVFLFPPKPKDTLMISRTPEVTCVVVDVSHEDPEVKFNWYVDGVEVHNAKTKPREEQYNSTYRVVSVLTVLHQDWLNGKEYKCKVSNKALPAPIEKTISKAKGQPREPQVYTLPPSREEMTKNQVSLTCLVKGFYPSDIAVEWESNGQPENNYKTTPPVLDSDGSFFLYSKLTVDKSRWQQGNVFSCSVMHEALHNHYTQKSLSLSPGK
# method-summary: SPR pH 6.0, antigen captured on Fab 54BLH
endpoint-label: Kd (nM)

>>> numeric_readout("15BLM (antibody, human IgG1, kappa, L234A L235A, V domains shown, IgG1 L234A L235A D265S/kappa; also called 78BLH; 51BMD) VH: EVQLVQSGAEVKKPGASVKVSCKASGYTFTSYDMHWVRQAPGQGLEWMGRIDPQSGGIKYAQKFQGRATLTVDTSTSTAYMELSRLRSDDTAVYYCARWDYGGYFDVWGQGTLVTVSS VL: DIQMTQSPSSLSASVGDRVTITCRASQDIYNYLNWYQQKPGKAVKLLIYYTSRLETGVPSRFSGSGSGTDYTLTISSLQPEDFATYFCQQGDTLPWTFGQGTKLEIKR")
0.331
